// provenance: the supplement of paper PMC11451515

# cell viability per record follows
test system: SEM cells; assay: cell viability relative to DMSO control; higher = less cytotoxic; conditions: RPMI 5 mM glucose + 10% FBS; 48 h; 0.00702 µM
Don't forget the unit after the value.

Notebook: CN1C2=CC(=O)/C(=N/NC(N)=O)C=C2CC1S(=O)(=O)[O-].[Na+] (stereo not drawn) , cell viability read as 114%

Notebook: CO[C@H]1/C=C/O[C@@]2(C)Oc3c(C)c(O)c4c(O)c(c(/C=N/N5CCN(C)CC5)c(O)c4c3C2=O)NC(=O)/C(C)=C\C=C\[C@H](C)[C@H](O)[C@@H](C)[C@@H](O)[C@@H](C)[C@H](OC(C)=O)[C@@H]1C , cell viability read as 87.1%

Notebook: C=CCc1cc(OC)c(O)c(C(=O)NCCO)c1 , cell viability read as 108%

----------
system: P12-Ichikawa; experiment: cell viability relative to DMSO control; higher = less cytotoxic; settings: HPLM + 10% dialyzed FBS; 48 h; 0.0211 µM
measurement-name: cell viability (%)
Report as a plain number; the unit % is understood.

Take a look at these entries with their results.
{"compound": "COC(=O)Nc1ccc(-c2nc(N3CCOCC3)c3cnn(C4CCN(Cc5cccnc5)CC4)c3n2)cc1", "scale-unit": "%", "quantitative-readout": 113}
{"compound": "O=C(O)CSCC(=O)NC1CCSC1=O (stereo unspecified)", "scale-unit": "%", "quantitative-readout": 120}
{"compound": "C[C@H]1[C@H](O)O[C@@H]2O[C@@]3(C)CC[C@H]4[C@H](C)CC[C@@H]1[C@@]24OO3", "scale-unit": "%", "quantitative-readout": 98.6}
{"compound": "CN(CCOc1ccc(NS(C)(=O)=O)cc1)CCc1ccc(NS(C)(=O)=O)cc1", "scale-unit": "%", "quantitative-readout": 115}
{"compound": "Cc1ccc(NC(=O)c2cccc(N(C)C)c2)cc1NC(=O)c1ccc(O)cc1", "scale-unit": "%", "quantitative-readout": 116}

// moving on: another record for cell viability
Notebook: CCOC(CN1C(=O)[C@](CC(=O)Nc2ccc(C)cc2)(NC(=O)Nc2ccc(C)cc2)c2ccccc21)OCC , cell viability read as 111

----------
tested on: NOMO1; assay: cell viability relative to DMSO control; higher = less cytotoxic; settings: RPMI 5 mM glucose + 10% dialyzed FBS; 48 h; 0.0632 µM
measurement-name: cell viability (%)
Report as a plain number; the unit % is understood.

Take a look at these entries with their results.
{"compound": "CCCNCC(O)COc1ccccc1C(=O)CCc1ccccc1 (stereo unspecified)", "cell viability, %": 124}
{"compound": "CCc1ccc(C(=O)Nc2cc(CN3CCN(C)CC3)cc(C(F)(F)F)c2)cc1C#Cc1cnc2ccnn2c1", "cell viability, %": 120}
{"compound": "CCc1cccc2c3c([nH]c12)C(CC)(CC(=O)O)OCC3 (stereo unspecified)", "cell viability, %": 82.4}
{"compound": "C[C@@H](NCc1cc2ccccc2[nH]1)c1cccc2ccccc12", "cell viability, %": 84.2}
{"compound": "CCc1c(O)cc(O)c(C(=O)c2ccc(OCCN3CCOCC3)c(OC)c2)c1CC(=O)N(CCOC)CCOC", "cell viability, %": 114}
{"compound": "NC1CCC(Nc2nc(Nc3ccc(C(=O)N4CCCCC4)cc3)c3ncn(-c4cccc(F)c4)c3n2)CC1 (stereo unspecified)", "cell viability, %": 121}

Notebook: CCCC(CCC)C(=O)[O-] , cell viability read as 112

Notebook: CN1C2=CC(=O)/C(=N/NC(N)=O)C=C2CC1S(=O)(=O)[O-].[Na+] (stereo unspecified) , cell viability read as 118

Notebook: Cc1ccc(NC(=O)c2cccc(N(C)C)c2)cc1NC(=O)c1ccc(O)cc1 , cell viability read as 116

Notebook: CO[C@H]1/C=C/O[C@@]2(C)Oc3c(C)c(O)c4c(O)c(c(/C=N/N5CCN(C)CC5)c(O)c4c3C2=O)NC(=O)/C(C)=C\C=C\[C@H](C)[C@H](O)[C@@H](C)[C@@H](O)[C@@H](C)[C@H](OC(C)=O)[C@@H]1C , cell viability read as 122

Notebook: CCOc1cc(/C=C2/C(=O)N(c3ccccc3)N=C2C)cc(Cl)c1OCC(=O)OC , cell viability read as 92.6
